Below, each entry is listed alongside its reported ND 50 MN assay, live virus.
biological target: Spike protein on live SARS-CoV-2 Victoria strain (SARS-CoV-2 (Victoria), UniProt P0DTC2 14-1273); experiment: cell-based or functional assay
ATTRIBUTE_MEASURED: ND 50 MN assay, live virus (nM)

>  <BINDER>
C1 trimer (VHH) QVQLVESGGGLVQPGGSLRLSCAASGFTNDFYSIAWFRQAPGKEREGVSWLSVSDNTPTYVDSVKDRFTISRHNANNTVYLQMNMLKPEDTAIYYCAAGRFAGRDTWPSSYDYWGQGTQVTVSSGSGSGSQVQLVESGGGLVQPGGSLRLSCAASGFTNDFYSIAWFRQAPGKEREGVSWLSVSDNTPTYVDSVKDRFTISRHNANNTVYLQMNMLKPEDTAIYYCAAGRFAGRDTWPSSYDYWGQGTQVTVSSGSGSGSQVQLVESGGGLVQPGGSLRLSCAASGFTNDFYSIAWFRQAPGKEREGVSWLSVSDNTPTYVDSVKDRFTISRHNANNTVYLQMNMLKPEDTAIYYCAAGRFAGRDTWPSSYDYWGQGTQVTVSS

>  <ATTRIBUTE_MEASURED>
ND 50 MN assay, live virus

>  <TEST_RESULT>
4.9

$$$$
>  <BINDER>
A8 trimer (bispecific antibody) QVQLVESGGGLVQAGGSLRLSCAASGGTFSTAAMGWFRQAPGEERECVASIGWRGVRTWYADSVKGRFTISRDNPQNTVYLQMNNLKSGDTAVYYCAASVGNYGLPWAHFEYDFWGQGIQVTVSSGSGSGSQVQLVESGGGLVQAGGSLRLSCAASGGTFSTAAMGWFRQAPGEERECVASIGWRGVRTWYADSVKGRFTISRDNPQNTVYLQMNNLKSGDTAVYYCAASVGNYGLPWAHFEYDFWGQGIQVTVSSGSGSGSQVQLVESGGGLVQAGGSLRLSCAASGGTFSTAAMGWFRQAPGEERECVASIGWRGVRTWYADSVKGRFTISRDNPQNTVYLQMNNLKSGDTAVYYCAASVGNYGLPWAHFEYDFWGQGTQVTVSSKHHHHHH

>  <ATTRIBUTE_MEASURED>
ND 50 MN assay, live virus

>  <TEST_RESULT>
0.09

$$$$
>  <BINDER>
C5 trimer (VHH, also called trimeric C5 nanobody; C5-6GS-C5-6GS-C5) QVQLVESGGGSVQAGGSLTLSCVASGVTLGRHAIGWFRQAPGKERERVSCIRTFDGITSYVESTKGRFTISSNNAMNTVYLQMNSLKPEDTAVYFCALGVTAACSDNPYFWGQGTQVTVSSGSGSGSQVQLVESGGGSVQAGGSLTLSCVASGVTLGRHAIGWFRQAPGKERERVSCIRTFDGITSYVESTKGRFTISSNNAMNTVYLQMNSLKPEDTAVYFCALGVTAACSDNPYFWGQGTQVTVSSGSGSGSQVQLVESGGGSVQAGGSLTLSCVASGVTLGRHAIGWFRQAPGKERERVSCIRTFDGITSYVESTKGRFTISSNNAMNTVYLQMNSLKPEDTAVYFCALGVTAACSDNPYFWGQGTQVTVSS

>  <ATTRIBUTE_MEASURED>
ND 50 MN assay, live virus

>  <TEST_RESULT>
0.02

$$$$
>  <BINDER>
H3 trimer (VHH) QVQLVESGGGLVKTGGSLRLSCAASGRTFSTYSMGWFRQAPGKEREFVAGMRWTGSSTFYSDSVKGRFTVSRNNAKDTVYLHMNSLKPEDTAVYYCAITTIVRAYYTEYTEADFGSWGQGTQVTVSSGAVLAPQVQLVESGGGLVKTGGSLRLSCAASGRTFSTYSMGWFRQAPGKEREFVAGMRWTGSSTFYSDSVKGRFTVSRNNAKDTVYLHMNSLKPEDTAVYYCAITTIVRAYYTEYTEADFGSWGQGTQVTVSSGSGSGSQVQLVESGGGLVKTGGSLRLSCAASGRTFSTYSMGWFRQAPGKEREFVAGMRWTGSSTFYSDSVKGRFTVSRNNAKDTVYLHMNSLKPEDTAVYYCAITTIVRAYYTEYTEADFGSWGQGTQVTVSS

>  <ATTRIBUTE_MEASURED>
ND 50 MN assay, live virus

>  <TEST_RESULT>
0.4

$$$$
